# assay text: Pharmacokinetics in plasma and bronchoalveolar lavage fluid of female CD-1 mice
# Format: in vivo
# setup conditions: female, CD-1, mouse, bronchoalveolar lavage fluid (BALF), intravenous; 8.00 h; 150 mg/kg; read-out: BALF concentration Mean ± SD
assay readout: concentration at 8 h (ng/mL)
Numbers only, in ng/mL.

Enquiry: Look at this compound and give its reported concentration at 8 h. `NC(=O)[C@@H]1CC[C@@H]2CN1C(=O)N2OS(=O)(=O)O`
Return: 5.37

###

# assay text: Pharmacokinetics in plasma and bronchoalveolar lavage fluid of female CD-1 mice
# Type: in vivo
# setup conditions: female, CD-1, mouse, ELF, intravenous; 5.00 h; 150 mg/kg; read-out: ELF concentration Mean ± SD
assay readout: concentration at 5 h (ng/mL)
One number for each entry, in ng/mL.

Enquiry: Which measured concentration at 5 h value corresponds to `NC(=O)[C@@H]1CC[C@@H]2CN1C(=O)N2OS(=O)(=O)O` ?
Return: 129

###

# assay text: Pharmacokinetics in plasma and bronchoalveolar lavage fluid of female CD-1 mice
# Assay type: in vivo
# setup conditions: female, CD-1, mouse, bronchoalveolar lavage fluid (BALF), intravenous; 3.00 h; 150 mg/kg; read-out: BALF concentration Mean ± SD
assay readout: concentration at 3 h (ng/mL)
Numbers only, in ng/mL.

Enquiry: If you can, please state the reported concentration at 3 h value of `NC(=O)[C@@H]1CC[C@@H]2CN1C(=O)N2OS(=O)(=O)O` .
Return: 626

###

# assay text: Pharmacokinetics in plasma and bronchoalveolar lavage fluid of female CD-1 mice
# Format: in vivo
# setup conditions: female, CD-1, mouse, plasma; 0.25 h; group 01 (25 mg/kg per Table 9), intravenous dripping; read-out: Plasma concentration Mean ± SD
assay readout: concentration at 0.25 h (ng/mL)
One number for each entry, in ng/mL.

Enquiry: Could you share which concentration at 0.25 h value was measured for `NC(=O)[C@@H]1CC[C@@H]2CN1C(=O)N2OS(=O)(=O)O` ?
Return: 16500

###

# assay text: Pharmacokinetics in plasma and bronchoalveolar lavage fluid of female CD-1 mice
# Type: in vivo
# setup conditions: mouse, bronchoalveolar lavage fluid (BALF); female CD-1 mice, intravenous dripping 150 mg/kg, BALF; read-out: Tmax, BALF
assay readout: Tmax (h)
Numbers only, in h.

Enquiry: State the recorded Tmax for this entry: CC1(C)[C@H](C(=O)[O][Na+])N2C(=O)C[C@H]2S1(=O)=O [Sulbactam sodium, sulbactam sodium]
Return: 3

###

# assay text: Pharmacokinetics in plasma and bronchoalveolar lavage fluid of female CD-1 mice
# Assay type: in vivo
# setup conditions: female, CD-1, mouse, bronchoalveolar lavage fluid (BALF), intravenous; 0.50 h; group 01 (25 mg/kg per Table 9); read-out: BALF concentration Mean ± SD
assay readout: concentration at 0.5 h (µg/mL)
One number for each entry, in µg/mL.

Enquiry: Need concentration at 0.5 h, item `NC(=O)[C@@H]1CC[C@@H]2CN1C(=O)N2OS(=O)(=O)O`
Return: 0.849

###

# assay text: Pharmacokinetics in plasma and bronchoalveolar lavage fluid of female CD-1 mice
# Assay type: in vivo
# setup conditions: mouse, bronchoalveolar lavage fluid (BALF); female CD-1 mice, intravenous dripping 150 mg/kg, BALF; read-out: Cmax, mean BALF concentration
assay readout: Cmax (ng/mL)
Answers are plain numbers, in ng/mL.

Enquiry: Param item = CC1(C)[C@H](C(=O)[O][Na+])N2C(=O)C[C@H]2S1(=O)=O [Sulbactam sodium, sulbactam sodium] ; retrieve measured Cmax.
Return: 617

###

# assay text: Pharmacokinetics in plasma and bronchoalveolar lavage fluid of female CD-1 mice
# Format: in vivo
# setup conditions: female, CD-1, mouse, plasma; 8.00 h; 150 mg/kg intravenous dripping; read-out: Plasma concentration Mean ± SD
assay readout: concentration at 8 h (ng/mL)
Give bare numbers, in ng/mL.

Enquiry: Look up concentration at 8 h: `NC(=O)[C@@H]1CC[C@@H]2CN1C(=O)N2OS(=O)(=O)O`
Return: 28.5

###

# assay text: Pharmacokinetics in plasma and bronchoalveolar lavage fluid of female CD-1 mice
# Format: in vivo
# setup conditions: mouse, bronchoalveolar lavage fluid (BALF); female CD-1 mice, intravenous dripping 150 mg/kg, BALF; read-out: AUC0-last, BALF
assay readout: AUC(0-t)
Please state the value followed by its unit.

Enquiry: Tell me the measured AUC(0-t) of CC1(C)[C@H](C(=O)[O][Na+])N2C(=O)C[C@H]2S1(=O)=O [Sulbactam sodium, sulbactam sodium] , please.
Return: 1310 ng·h/mL

###

# assay text: Pharmacokinetics in plasma and bronchoalveolar lavage fluid of female CD-1 mice
# Format: in vivo
# setup conditions: mouse; female CD-1 mice, intravenous dripping 150 mg/kg, plasma; read-out: T1/2, plasma (converted)
assay readout: half-life (min)
Answers are plain numbers, in min.

Enquiry: Record request: half-life value, item CC1(C)[C@H](C(=O)[O][Na+])N2C(=O)C[C@H]2S1(=O)=O [Sulbactam sodium, sulbactam sodium]
Return: 52.4

###

# assay text: Pharmacokinetics in plasma and bronchoalveolar lavage fluid of female CD-1 mice
# Type: in vivo
# setup conditions: mouse; female CD-1 mice, intravenous dripping 150 mg/kg, plasma; read-out: AUC0-last, plasma
assay readout: AUC(0-t) (ng·h/mL)
One number for each entry, in ng·h/mL.

Enquiry: Which AUC(0-t) reading was recorded for the compound CC1(C)[C@H](C(=O)[O][Na+])N2C(=O)C[C@H]2S1(=O)=O [Sulbactam sodium, sulbactam sodium] ?
Return: 52900

###

# System: Acinetobacter baumannii clinical strains
# assay text: Information of drug resistance of 10 clinical strains
# Assay type: cell-based
# Design: key: S: Drug Susceptible; I: Drug Intermediate; R: Drug Resistant
# setup conditions: strain TNP041707
assay readout: Drug resistance

Examples with their reported Drug resistance follow.
INSERT INTO results (structure_notation, result) VALUES
  ('CC(C)(O/N=C(\C(=O)N[C@@H]1C(=O)N2C(C(=O)[O-])=C(C[n+]3ccccc3)CS[C@H]12)c1csc(N)n1)C(=O)O', 'R'),
  ('CO/N=C(\C(=O)N[C@@H]1C(=O)N2C(C(=O)O)=C(COC(N)=O)CS[C@H]12)c1ccco1', 'R'),
  ('NCC[C@H](O)C(=O)N[C@@H]1C[C@H](N)[C@@H](O[C@H]2O[C@H](CN)[C@@H](O)[C@H](O)[C@H]2O)[C@H](O)[C@H]1O[C@H]1O[C@H](CO)[C@@H](O)[C@H](N)[C@H]1O', 'R'),
  ('C[C@@H](O)[C@H]1C(=O)N2C(C(=O)O)=C(SCCN=CN)C[C@H]12', 'R');

Enquiry: Recorded Drug resistance of `CCN1CCN(C(=O)N[C@@H](C(=O)N[C@@H]2C(=O)N3[C@@H]2SC(C)(C)[C@@H]3C(=O)O)c2ccccc2)C(=O)C1=O` , please.
Return: R

###

# assay text: Pharmacokinetics in plasma and bronchoalveolar lavage fluid of female CD-1 mice
# Format: in vivo
# setup conditions: female, CD-1, mouse, ELF, intravenous; 0.50 h; group 01 (25 mg/kg per Table 9); read-out: ELF concentration Mean ± SD
# Description: An appropriate amount of the test drug was accurately weighed and mixed with the appropriate volume of vehicle (5% DMSO+0.5% Tween 80 in normal saline) to obtain a clear solution for the test in Table 9. The formulation solution for injection was prepared to sterile filtration through a 0.22 μm filter prior to administration. The mice were dosed with the drug within 30 min after the formulated solution for injection was prepared. […]
assay readout: concentration at 0.5 h (ng/mL)
Answers are plain numbers, in ng/mL.

Enquiry: Bench note: what concentration at 0.5 h did NC(=O)[C@@H]1CC[C@@H]2CN1C(=O)N2OS(=O)(=O)O [Avibactam] show?
Return: 5400

###

# System: Acinetobacter baumannii clinical strains
# assay text: Information of drug resistance of 10 clinical strains
# Format: cell-based
# Design: key: S: Drug Susceptible; I: Drug Intermediate; R: Drug Resistant
# setup conditions: strain TNP041708
assay readout: Drug resistance

Completed entries (count: 5):
INSERT INTO measurements (compound, result) VALUES
  ('CO/N=C(\C(=O)N[C@@H]1C(=O)N2C(C(=O)O)=C(COC(N)=O)CS[C@H]12)c1ccco1 [Cefuroxime]', 'R'),
  ('CCN1CCN(C(=O)N[C@@H](C(=O)N[C@@H]2C(=O)N3[C@@H]2SC(C)(C)[C@@H]3C(=O)O)c2ccccc2)C(=O)C1=O [Piperacillin]', 'R'),
  ('CC(C)(O/N=C(\C(=O)N[C@@H]1C(=O)N2C(C(=O)[O-])=C(C[n+]3ccccc3)CS[C@H]12)c1csc(N)n1)C(=O)O [Ceftazidime]', 'R'),
  ('NCC[C@H](O)C(=O)N[C@@H]1C[C@H](N)[C@@H](O[C@H]2O[C@H](CN)[C@@H](O)[C@H](O)[C@H]2O)[C@H](O)[C@H]1O[C@H]1O[C@H](CO)[C@@H](O)[C@H](N)[C@H]1O [Amikacin]', 'S'),
  ('Cc1nnc(SCC2=C(C(=O)O)N3C(=O)[C@@H](NC(=O)Cn4cnnn4)[C@H]3SC2)s1 [Cefazolin]', 'R');

Here is another compound to look at.
Enquiry: What does the data say about its Drug resistance? Entry: CO/N=C(\C(=O)N[C@@H]1C(=O)N2C(C(=O)[O-])=C(C[N+]3(C)CCCC3)CS[C@H]12)c1csc(N)n1 [Cefepime]
Return: R

Measured values drawn from patent US12697325B2 for this set.
